target: JAK1 (Homo sapiens (Human)); assay: Jak Biochemical HTRF Assay, JAK1; conditions: HTRF biochemical assay, GST-tagged catalytic domain; top concentration tested […]; read-out: JAK1 IC50
Sequence (P23458 875-1153): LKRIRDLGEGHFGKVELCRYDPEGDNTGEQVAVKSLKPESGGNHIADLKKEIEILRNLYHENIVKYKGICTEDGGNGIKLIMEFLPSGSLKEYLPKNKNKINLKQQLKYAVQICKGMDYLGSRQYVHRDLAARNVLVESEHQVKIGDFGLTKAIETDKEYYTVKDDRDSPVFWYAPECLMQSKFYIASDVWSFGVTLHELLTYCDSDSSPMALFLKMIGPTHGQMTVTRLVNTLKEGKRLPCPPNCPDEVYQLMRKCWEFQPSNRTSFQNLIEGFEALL
pIC50: −log10 of the molar value.
Decide using pIC50: a value greater than or equal to 8 is MET, a smaller one is NOT MET.

[[record]]
compound = "CCOc1ccccc1CN1CCC(CC#N)(n2cc(C(N)=O)c(Nc3ccccc3)n2)CC1 [Example 21-16]"
class_assignment = "NOT MET"

[[record]]
compound = "N#CCC1(n2cc(C(N)=O)c(Nc3ccc(F)cc3)n2)CCN(CC2CC2)CC1 [Example 24-2]"
class_assignment = "NOT MET"


Check this compound for pIC50 at or above 8: COc1ccc(C)cc1NC(=O)N1CC(CC#N)(n2cc(C(N)=O)c(Nc3ccccc3)n2)C1 [Example 38-25] NOT MET

Exam item: decide whether the reported pIC50 for N#CCC1(n2cc(C(N)=O)c(Nc3ccnc(F)c3)n2)CCN(C(=O)C2(C(F)(F)F)CCC2)CC1 [Example 34-51] is at least 8. MET

Does COc1cncc(N2CCC(CC#N)(n3cc(C(N)=O)c(Nc4ccc(F)cc4)n3)CC2)c1 [Example 3-37] have a reported pIC50 of at least 8? MET

Record N#CCC1(n2cc(C(N)=O)c(Nc3ccccc3)n2)CCN(C(=O)CO)CC1 [Example 34-35] ; criterion: pIC50 no lower than 8. Met? NOT MET

Item N#CCC1(n2cc(C(N)=O)c(Nc3ccccc3)n2)CN(C(=O)OCCCc2cccnc2)C1 [Example 30-68] with pIC50 of 8 or above? NOT MET

Could you tell me if the measured pIC50 of N#CCC1(n2cc(C(N)=O)c(Nc3ccc(F)cc3)n2)CCN(c2ccncn2)CC1 [Example 26] reaches 8 or more? MET

State whether the measured pIC50 reaches 8, counting equality as reaching it, for N#CCC1(n2cc(C(N)=O)c(Nc3ccc(S(=O)(=O)C(F)F)cc3)n2)CCC(NCC(F)F)CC1 (stereo not drawn) [Example 40-84] MET

Item N#CCC1(n2cc(C(N)=O)c(Nc3ccnc(F)c3)n2)CCN(C(=O)OC2CCOC2)CC1 (single isomer, unassigned) [Example 49-2] with pIC50 of 8 or above? MET

Determine whether measured pIC50 meets or exceeds 8 for Cn1ccc(CN2CCC(CC#N)(n3cc(C(N)=O)c(Nc4ccnc(F)c4)n3)CC2)n1 [Example 22-30] NOT MET

Dear colleague, could you confirm whether CC(C)(C)OC(=O)N1CC[C@](CC#N)(n2cc(C(N)=O)c(Nc3ccc(F)cc3)n2)[C@@H](F)C1 (single isomer, unassigned) [Example 47-4] has pIC50 at or above 8? MET

Threshold query (pIC50 >= 8) on N#CCC1(n2cc(C(N)=O)c(Nc3ccnc(F)c3)n2)CCN(C(=O)OCC(F)(F)F)CC1 [Example 30-1] MET

State whether the measured pIC50 reaches 8, counting equality as reaching it, for CCCCNC(=O)N1CC(CC#N)(n2cc(C(N)=O)c(Nc3ccc(S(C)(=O)=O)cc3)n2)C1 [Example 38-43] NOT MET
